src = patent US20230278972A1

tested on: corn (Zea mays); assay: Test A1 preemergence, corn; type: in vivo; details: 125 g ai/ha, 0 to 100 scale, 0 no effect, 100 complete control
For each record, write down the corresponding Plant response rating, Corn.
Response field accepts a number only; no unit should be typed.

query: May I ask what Plant response rating, Corn has been recorded for `Cc1cc(C)c(N2Cc3cccc(C)c3C2=O)cc1NS(=O)(=O)Cl` ?
result: 90

query: Next compound up: Cc1c(NS(=O)(=O)C(F)(F)F)cc(C(=O)N2CC(C)OC(C)C2)c(C)c1C (centres unmarked)
result: 60

query: Next compound up: Cc1cc(C)c(N(C(=O)OCC(C)C)S(=O)(=O)C(F)(F)F)cc1C1=NOC2CCCC12 (centres unmarked)
result: 0

query: Next compound up: CCC1ON=C(c2cc(N(C(=O)OCC(C)C)S(=O)(=O)C(F)(F)F)c(C)cc2C)C1CC (centres unmarked)
result: 10

query: Next compound up: `Cc1c(C(=O)N2C[C@@H](C)O[C@@H](C)C2)cc(N(COC(=O)C(C)(C)C)S(=O)(=O)C(F)(F)F)c(C)c1C`
result: 0

query: Next compound up: Cc1cc(C)c(N(COC(=O)C(C)(C)C)S(=O)(=O)C(F)(F)F)cc1C1=NOC2COCC12 (centres unmarked)
result: 10

query: Next compound up: `COc1cc(C)c(C2=NOC3(CCCC3)C2)cc1NS(=O)(=O)C(F)(F)F`
result: 0

query: Next compound up: COCC1CC(c2cc(NS(=O)(=O)C(F)(F)F)c(C)cc2C)=NO1 (centres unmarked)
result: 90
